- target: T1, HTRA3, P83110
- T1 sequence (P83110 354-453, limits assumed, looked up): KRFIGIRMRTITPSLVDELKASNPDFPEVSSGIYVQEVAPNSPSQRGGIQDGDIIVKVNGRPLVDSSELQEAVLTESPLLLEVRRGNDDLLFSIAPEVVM
- method_summary: holdup assay
- Design: key: below the threshold = too weak to quantify, mostly under pKd 3.1 to 4
- condition_info: plain residues with an end cap or a label only (N-terminal biotin on a linker: ado-ado)

# binder, pKd
records = [
    ("AHGSTRDQSI [KCNB1, Q14721]", "below the threshold"),
    ("RDYTQSSSSL [GRM5, P41594]", "below the threshold"),
    ("THREVKFTSL [CD46, P15529]", "below the threshold"),
    ("GVHSNDHSVV [LPAR1, Q92633]", "below the threshold"),
    ("GSQSQVETEA [FKBP4, Q02790]", "below the threshold"),
    ("SQPLLVHDDV [KIT, P10721]", "below the threshold"),
    ("DFKHTKSFII [JAM2, P57087]", 4.1),
    ("STYCDYTIEI [FAM71C, Q8NEG0]", 4.08),
]
